- Experiment description: Cell Viability - N2a (AID 540);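 also: cells exposed to compound for 40 h at 37 °C; nearly all actives have a fitted effect of over 45% in size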
- Measurement conditions: N2a mouse neuroblastoma cell viability; series mostly up to 92.2 µM
Records with an inconclusive call do not appear. Activity calls are given as the source filed them. Calls follow the shape of the dose curve; as a rule, active = well fitted cell-killing curve with a large enough effect; inconclusive = small, poorly fitted or top-dose-only effect; inactive = flat fitted curve, though single readings scatter.
Quantity measured: outcome

INSERT INTO measurements (chemical_string, quantity_measured, test_result) VALUES
  ('O=c1[nH]cnc2[nH]ncc12', 'outcome', 'inactive'),
  ('NC(N)=NC(=O)c1nc(Cl)c(N)nc1N', 'outcome', 'inactive'),
  ('NS(=O)(=O)c1cc2c(cc1Cl)NC=NS2(=O)=O', 'outcome', 'inactive'),
  ('CC(=O)Oc1ccccc1C(=O)O', 'outcome', 'inactive');
